Biological target: T1, human GLP-1 receptor (human, UniProt P43220 24-463)
T1 construct: whole, on cells
Assay: competitive binding (SPA): displacement of 125I-GLP-1(7-36)NH2 from BHK cell membranes with human GLP-1 receptor; high HSA (2.0% final)
Numbered stars: 1 amine (or outer) side, 2 acyl side, 3 side chain; on linkers, the order of the positions; unused ones are H or OH. Square brackets hold non-standard residues; d marks the D form. Side chains are listed from the residue outwards. Ends that are not written are not given here. * marks the point of attachment. C20 diacid = O=C(O)CCCCCCCCCCCCCCCCCCC(=O)*; γGlu = O=C(O)[C@H](CCC(=O)[*:2])N[*:1]; Desaminohistidyl = O=C(CCc1c[nH]cn1)*; εLys = N[C@@H](CCCCN[*:1])C(=O)[*:2]; Trx = NC[C@H]1CC[C@H](C(=O)O)CC1; AEEA = NCCOCCOCC(=O)O; Aib = CC(C)(N)C(=O)O
READOUT_TYPE: IC50 (nM)

| BINDER | OBSERVED_VALUE |
| --- | --- |
| H[Aib]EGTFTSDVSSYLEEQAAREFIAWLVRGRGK([AEEA-AEEA-AEEA-AEEA-AEEA-AEEA-εLys-εLys-C20 diacid])GGSK([AEEA-AEEA-AEEA-AEEA-AEEA-AEEA-εLys-εLys-C20 diacid]) (Double-acylated, C-terminally extended GLP-1 analogue made by SPPS; also called 28) | 30 |
| HXEGTFTSDVSSYLEEQAAREFIAWLVRGRGKGGSK (Aib at position 8; N-epsilon of Lys38 and of Lys42 each acylated with C20 diacid (19-carboxynonadecanoyl)-Trx-gGlu-DooaSuc (GLP-1(7-37) numbering = sequence-listing position + 6), Double-acylated, C-terminally extended GLP-1 analogue made by SPPS; also called 23) | 201 |
| [Desaminohistidyl][Aib]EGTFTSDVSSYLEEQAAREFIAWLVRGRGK([AEEA-AEEA-AEEA-AEEA-γGlu-C20 diacid])GGSK([AEEA-AEEA-AEEA-AEEA-γGlu-C20 diacid]) (Double-acylated, C-terminally extended GLP-1 analogue made by SPPS; also called 20) [N{Alpha}([Imp …] | 270 |
| H[Aib]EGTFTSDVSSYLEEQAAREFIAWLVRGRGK([AEEA-AEEA-γGlu-Trx-C20 diacid])SPEK([AEEA-AEEA-γGlu-Trx-C20 diacid]) (Double-acylated, C-terminally extended GLP-1 analogue made by SPPS; also called 11) | 116 |

Values were extracted from patent US20150011462A1.
